Species: Rattus norvegicus
Experiment: DrugMatrix - Regimen: Daily Repeat
Type: toxicity, organism-based, Sprague-Dawley
Parameters: regimen Daily Repeat, gender Male, age 6-8 weeks
Conditions: in vivo, po, 0 mg/kg, 72 h, tissue Blood, route oral GAVAGE, dose level Control, time 3 day, vehicle 100 % WATER
quantity name: LYMPHOCYTE (%)
Numbers only here, please. The scale is %.

Example entries and their recorded answers appear below.
{"molecule": "Cn1cc[nH]c1=S", "units": "%", "LYMPHOCYTE": 90.17}
{"molecule": "c1ccc([C@H]2CN3CCSC3=N2)cc1", "units": "%", "LYMPHOCYTE": 88.5}
{"molecule": "C[C@](N)(Cc1ccc(O)c(O)c1)C(=O)O", "units": "%", "LYMPHOCYTE": 86.5}

Give its LYMPHOCYTE value. Item: C[C@H](CS)C(=O)N1CCC[C@H]1C(=O)O
92.33

If you can, please state the reported LYMPHOCYTE value of C[C@H]1c2cccc(O)c2C(=O)C2=C(O)[C@]3(O)C(=O)C(C(N)=O)=C(O)[C@@H](N(C)C)[C@@H]3[C@@H](O)[C@@H]21.O .
89.83

Value lookup for LYMPHOCYTE; key = CN(C)CCCN1c2ccccc2Sc2ccc(Cl)cc21
88.33

Need LYMPHOCYTE, item CC(O)CO (stereo not given)
91

Given the molecule COc1cc2nc(N3CCN(C(=O)C4COc5ccccc5O4)CC3)nc(N)c2cc1OC (stereo not given) , what is its reported LYMPHOCYTE?
89.83

Given Clc1cccc(Cl)c1N=C1NCCN1 , state its recorded LYMPHOCYTE.
85.5

Return reported LYMPHOCYTE; argument: N[C@@H](Cc1ccc(O)c(O)c1)C(=O)O
89.83

###

Quick list: TOTAL PROTEIN per entry.
Species: Rattus norvegicus
Assay: DrugMatrix - Regimen: Daily Repeat
Type: toxicity, organism-based, Sprague-Dawley
Set-up: regimen Daily Repeat, gender Male, age 6-8 weeks
Settings: in vivo, po, 0 mg/kg, 120 h, tissue Plasma, route oral GAVAGE, dose level Control, time 5 day, […]

Would you please look over these solved cases?
{"molecule": "O=C(O)CCCc1ccc(N(CCCl)CCCl)cc1", "result": "5.55 G/DL"}
{"molecule": "Cc1noc(NS(=O)(=O)c2ccc(N)cc2)c1C", "result": "5.63 G/DL"}
{"molecule": "C[C@H]1O[C@@H](O[C@H]2[C@@H](O)C[C@H](O[C@H]3[C@@H](O)C[C@H](O[C@H]4CC[C@@]5(C)[C@H](CC[C@@H]6[C@@H]5C[C@@H](O)[C@]5(C)[C@@H](C7=CC(=O)OC7)CC[C@]65O)C4)O[C@@H]3C)O[C@@H]2C)C[C@H](O)[C@@H]1O", "result": "5.85 G/DL"}
{"molecule": "O=c1oc2ccccc2c(O)c1Cc1c(O)c2ccccc2oc1=O", "result": "5.9 G/DL"}

Now turn to the next molecule.
Recorded TOTAL PROTEIN of CCOC(=O)C1=C(COCCN)NC(C)=C(C(=O)OC)C1c1ccccc1Cl (stereo not given) , please.
5.53 G/DL

###

Species on record: Rattus norvegicus
Test: DrugMatrix - Regimen: Daily Repeat
Format: toxicity, organism-based, Sprague-Dawley
Set-up: regimen Daily Repeat, gender Male, age 6-8 weeks
Conditions: in vivo, po, 0 mg/kg, 72 h, tissue Blood, route oral GAVAGE, dose level Control, time 3 day, vehicle 100 % WATER
quantity name: HEMOGLOBIN (G/DL)
Just the number in G/DL, nothing appended.

{"record smiles": "CN(C)CCCN1c2ccccc2Sc2ccc(Cl)cc21", "quantity name": "HEMOGLOBIN", "units": "G/DL", "result": 13.6}
{"record smiles": "c1ccc([C@H]2CN3CCSC3=N2)cc1", "quantity name": "HEMOGLOBIN", "units": "G/DL", "result": 13.32}
{"record smiles": "NCCCCCC(=O)O", "quantity name": "HEMOGLOBIN", "units": "G/DL", "result": 14.05}

Please look up its HEMOGLOBIN: N[C@@H](Cc1ccc(O)c(O)c1)C(=O)O
13.83

Given the compound Nc1c2c(nc3ccccc13)CCCC2 , what is its reported HEMOGLOBIN?
14.12
